Recorded IC50 by entry
Molecular target: Proteinase-activated receptor 1 (Homo sapiens, UniProt P25116)
Sequence (P25116 whole entry): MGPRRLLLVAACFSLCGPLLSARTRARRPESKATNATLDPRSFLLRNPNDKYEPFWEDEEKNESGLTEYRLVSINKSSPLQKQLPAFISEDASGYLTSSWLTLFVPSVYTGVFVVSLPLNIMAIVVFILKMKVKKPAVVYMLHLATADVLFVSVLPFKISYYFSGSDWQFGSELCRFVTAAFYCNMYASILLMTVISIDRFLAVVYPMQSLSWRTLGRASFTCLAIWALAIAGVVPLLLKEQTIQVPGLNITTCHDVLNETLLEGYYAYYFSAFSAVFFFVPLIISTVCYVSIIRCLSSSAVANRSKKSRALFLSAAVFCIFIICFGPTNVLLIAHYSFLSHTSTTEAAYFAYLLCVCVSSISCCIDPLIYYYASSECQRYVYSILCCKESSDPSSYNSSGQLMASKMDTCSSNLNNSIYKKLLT
Experiment: Antagonist activity at PAR1 in human EAhy926 cells assessed as inhibition of TFLLRN-NH2-induced intracellular calcium mobilization preincubated for 15 mins followed by TFLLRN-NH2 addition by Fluo-4-AM dye based fluorescence assay
Assay type: functional, cell-based
Field: numeric (nM). Do not append units.

A selection of reference data follows.
INSERT INTO results (item_smiles, quantity_measured, reported) VALUES
  ('CC(C)c1cc(-c2ccc(F)cc2)nn2cc(C(=O)N3CCN(C(=O)CCC(=O)NCCOCCOCCOCCOCCOCCOCCn4cc(CCC(=O)NCC[C@H](NC(=O)[C@H](Cc5ccc(F)c(F)c5)NC(=O)Nc5ccc6c(CN7CCCC7)nn(Cc7c(Cl)cccc7Cl)c6c5)C(=O)NCc5ccccc5)nn4)CC3(C)C)nc12', 'IC50', 30),
  ('NCCOCCOCCOCCOCCOCCOCCOCCOCCn1cc(CCC(=O)NCC[C@H](NC(=O)[C@H](Cc2ccc(F)c(F)c2)NC(=O)Nc2ccc3c(CN4CCCC4)nn(Cc4c(Cl)cccc4Cl)c3c2)C(=O)NCc2ccccc2)nn1', 'IC50', 97);

Q: Which measured IC50 belongs to CC(C)c1cc(-c2ccc(F)cc2)nn2cc(C(=O)N3CCN(C(=O)CCC(=O)NCCOCCOCCOCCOCCOCCOCCOCCOCCOCCOCCOCCOCCOCCOCCOCCOCCOCCOCCOCCOCCOCCOCCOCCn4cc(CCC(=O)NCC[C@H](NC(=O)[C@H](Cc5ccc(F)c(F)c5)NC(=O)Nc5ccc6c(CN7CCCC7)nn(Cc7c(Cl)cccc7Cl)c6c5)C(=O)NCc5ccccc5)nn4)CC3(C)C)nc12 , tested on Proteinase-activated receptor 1 (Homo sapiens, UniProt P25116)?
Result: 180

Q: Query CC(C)c1cc(-c2ccc(F)cc2)nn2cc(C(=O)N3CCN(C(=O)CCC(=O)NCCOCCOCCOCCOCCOCCOCCOCCOCCOCCOCCn4cc(CCC(=O)NCC[C@H](NC(=O)[C@H](Cc5ccc(F)c(F)c5)NC(=O)Nc5ccc6c(CN7CCCC7)nn(Cc7c(Cl)cccc7Cl)c6c5)C(=O)NCc5ccccc5)nn4)CC3(C)C)nc12 next
Result: 40

Q: Please do the same for CC(C)c1cc(-c2ccc(F)cc2)nn2cc(C(=O)N3CCN(C(=O)CCC(=O)NCCOCCOCCOCCOCCOCCOCCOCCOCCn4cc(CCC(=O)NCC[C@H](NC(=O)[C@H](Cc5ccc(F)c(F)c5)NC(=O)Nc5ccc6c(CN7CCCC7)nn(Cc7c(Cl)cccc7Cl)c6c5)C(=O)NCc5ccccc5)nn4)CC3(C)C)nc12 as well.
Result: 130

* * *

Molecular target: Proteinase-activated receptor 2 (Homo sapiens)
Experiment: Antagonist activity at PAR2 in human EAhy926 cells assessed as inhibition of SLIGKV-NH2-induced intracellular calcium mobilization preincubated for 15 mins followed by SLIGKV-NH2 addition by Fluo-4-AM dye based fluorescence assay
Type: functional, cell-based
Calls of active or inactive are those of the source. No cut-off for these calls is given here.
Could you please pick one outcome from this set? active, inactive

INSERT INTO results (item_smiles, experimental_system, class_name) VALUES
  ('CC(C)c1cc(-c2ccc(F)cc2)nn2cc(C(=O)N3CCN(C(=O)CCC(=O)NCCCCC(=O)NCCOCCOCCOCCOCCOCCOCCOCCOCCOCCOCCOCCOCCOCCOCCOCCOCCOCCOCCOCCOCCOCCOCCOCCn4cc(CCC(=O)NCC[C@H](NC(=O)[C@H](Cc5ccc(F)c(F)c5)NC(=O)Nc5ccc6c(CN7CCCC7)nn(Cc7c(Cl)cccc7Cl)c6c5)C(=O)NCc5ccccc5)nn4)CC3(C)C)nc12', 'Proteinase-activated receptor 2 (Homo sapiens)', 'inactive'),
  ('CC1(C)CN(C(=O)[C@H]2CC[C@H](C(=O)NCCOCCOCCOCCOCCOCCOCCOCCOCCOCCOCCn3cc(CCC(=O)NCC[C@H](NC(=O)[C@H](Cc4ccc(F)c(F)c4)NC(=O)Nc4ccc5c(CN6CCCC6)nn(Cc6c(Cl)cccc6Cl)c5c4)C(=O)NCc4ccccc4)nn3)CC2)CCN1C(=O)c1cn2nc(-c3ccc(F)cc3)cc(-c3ccc(F)cc3)c2n1', 'Proteinase-activated receptor 2 (Homo sapiens)', 'active'),
  ('CC(C)c1cc(-c2ccc(F)cc2)nn2cc(C(=O)N3CCN(C(=O)CCC(=O)NCCCCCC(=O)NCCOCCOCCOCCOCCOCCOCCOCCOCCOCCOCCOCCOCCOCCOCCOCCOCCOCCOCCOCCOCCOCCOCCOCCN=[N+]=[N-])CC3(C)C)nc12', 'Proteinase-activated receptor 2 (Homo sapiens)', 'inactive'),
  ('CC1(C)CN(C(=O)[C@H]2CC[C@H](C(=O)O)CC2)CCN1C(=O)c1cn2nc(-c3ccc(F)cc3)cc(-c3ccc(F)cc3)c2n1', 'Proteinase-activated receptor 2 (Homo sapiens)', 'active'),
  ('CC1(C)CN(C(=O)[C@H]2CC[C@H](C(=O)NCCOCCOCCOCCOCCOCCOCCn3cc(CCC(=O)NCC[C@H](NC(=O)[C@H](Cc4ccc(F)c(F)c4)NC(=O)Nc4ccc5c(CN6CCCC6)nn(Cc6c(Cl)cccc6Cl)c5c4)C(=O)NCc4ccccc4)nn3)CC2)CCN1C(=O)c1cn2nc(-c3ccc(F)cc3)cc(-c3ccc(F)cc3)c2n1', 'Proteinase-activated receptor 2 (Homo sapiens)', 'active');

Q: Each compound tested received a call. Report the one for CC1(C)CN(C(=O)[C@H]2CC[C@H](C(=O)NCCOCCOCCOCCOCCOCCOCCOCCOCCn3cc(CCC(=O)NCC[C@H](NC(=O)[C@H](Cc4ccc(F)c(F)c4)NC(=O)Nc4ccc5c(CN6CCCC6)nn(Cc6c(Cl)cccc6Cl)c5c4)C(=O)NCc4ccccc4)nn3)CC2)CCN1C(=O)c1cn2nc(-c3ccc(F)cc3)cc(-c3ccc(F)cc3)c2n1 .
Result: active

* * *

Biological target: Proteinase-activated receptor 2 (Homo sapiens)
Sequence (P55085 whole entry): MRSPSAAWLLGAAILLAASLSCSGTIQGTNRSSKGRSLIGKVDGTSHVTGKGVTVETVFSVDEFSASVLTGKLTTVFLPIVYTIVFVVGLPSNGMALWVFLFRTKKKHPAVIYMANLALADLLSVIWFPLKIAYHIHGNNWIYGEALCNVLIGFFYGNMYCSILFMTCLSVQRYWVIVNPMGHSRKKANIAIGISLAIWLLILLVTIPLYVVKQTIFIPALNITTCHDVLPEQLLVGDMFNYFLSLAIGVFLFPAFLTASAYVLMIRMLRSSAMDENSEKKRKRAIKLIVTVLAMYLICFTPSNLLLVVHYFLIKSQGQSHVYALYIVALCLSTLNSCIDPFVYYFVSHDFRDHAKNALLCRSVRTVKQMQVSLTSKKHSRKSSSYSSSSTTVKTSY
Assay: Antagonist activity at PAR2 in human EAhy926 cells assessed as inhibition of SLIGKV-NH2-induced intracellular calcium mobilization preincubated for 15 mins followed by SLIGKV-NH2 addition by Fluo-4-AM dye based fluorescence assay
Format: functional, cell-based
pIC50: −log10 of the molar value.
QUANTITY MEASURED: pIC50

Solved entries (count: 2):
INSERT INTO assay_data (item_smiles, reported) VALUES
  ('CC(C)c1cc(-c2ccc(F)cc2)nn2cc(C(=O)N3CCN(C(=O)CCC(=O)NCCOCCOCCOCCOCCOCCOCCn4cc(CCC(=O)NCC[C@H](NC(=O)[C@H](Cc5ccc(F)c(F)c5)NC(=O)Nc5ccc6c(CN7CCCC7)nn(Cc7c(Cl)cccc7Cl)c6c5)C(=O)NCc5ccccc5)nn4)CC3(C)C)nc12', '< 4.30'),
  ('CC(C)c1cc(-c2ccc(F)cc2)nn2cc(C(=O)N3CCN(C(=O)CCC(=O)NCCOCCOCCOCCOCCOCCOCCOCCOCCOCCOCCn4cc(CCC(=O)NCC[C@H](NC(=O)[C@H](Cc5ccc(F)c(F)c5)NC(=O)Nc5ccc6c(CN7CCCC7)nn(Cc7c(Cl)cccc7Cl)c6c5)C(=O)NCc5ccccc5)nn4)CC3(C)C)nc12', '< 4.30');

Q: I have this molecule here, CC(C)c1cc(-c2ccc(F)cc2)nn2cc(C(=O)N3CCN(C(=O)CCC(=O)NCCOCCOCCOCCOCCOCCOCCOCCOCCn4cc(CCC(=O)NCC[C@H](NC(=O)[C@H](Cc5ccc(F)c(F)c5)NC(=O)Nc5ccc6c(CN7CCCC7)nn(Cc7c(Cl)cccc7Cl)c6c5)C(=O)NCc5ccccc5)nn4)CC3(C)C)nc12 , and I need its recorded pIC50.
Result: < 4.30
